Below, each of the molecules is paired with its reported Ki value.
# Target Desc: human Factor XIa (Homo sapiens (Human), UniProt P03951)
# Sequence (P03951 388-625): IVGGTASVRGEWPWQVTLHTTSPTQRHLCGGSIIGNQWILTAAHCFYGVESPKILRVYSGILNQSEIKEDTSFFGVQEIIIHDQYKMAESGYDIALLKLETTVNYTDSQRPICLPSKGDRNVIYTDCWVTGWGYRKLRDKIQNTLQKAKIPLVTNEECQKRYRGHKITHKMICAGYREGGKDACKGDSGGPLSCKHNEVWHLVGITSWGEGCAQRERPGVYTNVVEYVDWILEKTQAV
# Sequence (P03951 19-387 partner): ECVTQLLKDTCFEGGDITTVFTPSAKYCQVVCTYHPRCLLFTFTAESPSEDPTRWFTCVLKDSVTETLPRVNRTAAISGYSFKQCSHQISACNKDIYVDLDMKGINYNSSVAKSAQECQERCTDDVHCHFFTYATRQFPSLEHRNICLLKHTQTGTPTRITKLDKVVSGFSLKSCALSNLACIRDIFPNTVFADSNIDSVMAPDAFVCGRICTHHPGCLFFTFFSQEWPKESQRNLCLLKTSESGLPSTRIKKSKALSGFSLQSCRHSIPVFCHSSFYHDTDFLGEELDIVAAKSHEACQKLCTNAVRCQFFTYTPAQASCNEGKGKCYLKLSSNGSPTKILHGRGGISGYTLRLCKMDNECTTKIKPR
# Method Description: Factor XIa Assay
# Type: biochemical
# Study Conditions: purified human Factor XIa 40 pM, Z-Gly-Pro-Arg-AFC 100 μM, pH 7.4; read-out: FXIa Ki
# Experimental: The effectiveness of a compound of the present invention as an inhibitor of Coagulation Factor XIa can be determined using a relevant purified serine protease, and an appropriate synthetic substrate. The rate of hydrolysis of the chromogenic or fluorogenic substrate by the relevant serine protease was measured both in the absence and presence of compounds of the present invention. […] A decrease in the rate of fluorescence change in the presence of inhibitor is indicative of enzyme inhibition. […]
Numbers only here, please. The scale is µM.

// worked examples, Ki included
{"columns": ["Molecule", "Unit", "Ki"],
 "data": [
  ["COC(=O)Nc1ccc(C(=O)NC(C[C@H]2CCCO2)C(=O)N2CCC[C@@]3(C2)OC(=O)Nc2ccc(Cl)c(F)c23)cc1 (single isomer, unassigned) [Example 117A]", "µM", 0.0187],
  ["COC(=O)Nc1ccc(C(=O)N[C@@H](CCS(C)(=O)=O)C(=O)N2CCC[C@@]3(C2)OC(=O)Nc2ccc(Cl)cc23)cc1 [Example 59]", "µM", 0.0977]
]}

Let us move to another entry and its Ki.
Retrieve Ki measured for COC(=O)Nc1ccc(C(=O)NC(CC2CCS(=O)(=O)CC2)C(=O)N2CCC3(C2)OC(=O)Nc2ccc(Cl)cc23)cc1 (stereo not drawn) [Example 42] and print it.
0.0836

###

Below, each of the compounds is paired with its reported pKi value.
# Target Desc: human Factor XIa (Homo sapiens (Human), UniProt P03951)
# Method Description: Factor XIa Assay
# Format: biochemical
# Study Conditions: purified human Factor XIa 40 pM, Z-Gly-Pro-Arg-AFC 100 μM, pH 7.4; read-out: FXIa Ki
Give only the number. pKi is defined as minus log10 of concentration in molar units.

// worked examples, pKi included
{"columns": ["Compound", "pKi"],
 "data": [
  ["COC(=O)Nc1ccc(C(=O)N[C@@H](Cc2ccccc2)C(=O)N2CCCC3(C2)OC(=O)Nc2ccc(Cl)c(F)c23)cc1 (stereo partly shown)", 8.74],
  ["COC(=O)Nc1ccc(C(=O)N[C@@H](Cc2ccccc2)C(=O)N2CCC[C@@]3(C2)OC(=O)Nc2c(F)cc(Cl)cc23)cc1", 6.96],
  ["COC(=O)Nc1ccc(C(=O)N[C@@H](CC2CCOCC2)C(=O)N2CCC[C@@]3(C2)OC(=O)Nc2ccc(Cl)cc23)cc1", 7.38],
  ["COC(=O)Nc1ccc(C(=O)N[C@@H](CC(=O)NCc2ccnn2C)C(=O)N2CCC[C@@]3(C2)OC(=O)Nc2ccc(Cl)cc23)cc1", 7.42],
  ["O=C1Nc2ccc(Cl)cc2[C@@]2(CCCN(C(=O)[C@H](Cc3ccccc3)Nc3ccc(-c4ccc(O)nc4)cn3)C2)O1", 5.00]
]}

Retrieve pKi measured for COC(=O)Nc1ccc2[nH]c([C@@H](Cc3ccccc3)C(=O)N3CC[C@@]4(C3)OC(=O)Nc3ccc(Cl)cc34)nc2c1 [Example 131c] and print it.
6.45

Retrieve pKi measured for COC(=O)Nc1ccc(C(=O)N[C@@H](Cc2ccc(O)cc2)C(=O)N2CCC3(C2)OC(=O)Nc2ccc(Cl)cc23)cc1 (stereo partly shown) and print it.
8.48

Retrieve pKi measured for COC(=O)Nc1ccc(C(=O)N[C@@H](Cc2ccccc2)C(=O)N2CCC[C@]3(C2)OC(=O)Nc2ccc(Cl)cc23)cc1 and print it.
6.09

Retrieve pKi measured for COC(=O)Nc1ccc(C(=O)N[C@@H](CC(C)C)C(=O)N2CCC[C@@]3(C2)OC(=O)Nc2ccc(Cl)cc23)cc1 and print it.
7.31

Retrieve pKi measured for COC(=O)Nc1ccc(C(=O)N[C@@H](Cc2ccc(NS(C)(=O)=O)cc2)C(=O)N2CCC[C@@]3(C2)OC(=O)Nc2ccc(Cl)cc23)cc1 and print it.
9.41

Retrieve pKi measured for COC(=O)Nc1ccc(C(=O)N[C@@H](CCNC(=O)C2CCC2)C(=O)N2CCC[C@@]3(C2)OC(=O)Nc2ccc(Cl)cc23)cc1 and print it.
7.29

Retrieve pKi measured for COC(=O)Nc1ccc(C(=O)N[C@@H](Cc2cnc3ccccc3n2)C(=O)N2CCC[C@@]3(C2)OC(=O)Nc2ccc(Cl)c(F)c23)cc1 and print it.
7.44

Retrieve pKi measured for COC(=O)Nc1ccc(C(=O)N[C@@H](CCSC)C(=O)N2CCC[C@@]3(C2)OC(=O)Nc2ccc(Cl)cc23)cc1 and print it.
8.31

Retrieve pKi measured for O=C1Nc2ccc(Cl)cc2[C@@]2(CCN(C(=O)[C@H](Cc3ccccc3)C(=O)Nc3ccc(C(=O)O)cc3)C2)O1 [Example 121c] and print it.
6.36

Retrieve pKi measured for COC(=O)Nc1ccc(C(=O)N[C@@H](CC(C)(C)OC)C(=O)N2CCC[C@@]3(C2)OC(=O)Nc2ccc(Cl)c(F)c23)cc1 and print it.
7.99

Retrieve pKi measured for COC(=O)Nc1ccc(C(=O)N[C@@H](CC2CC2)C(=O)N2CC[C@]3(C2)OC(=O)Nc2ccc(Cl)cc23)cc1 [Example 21a] and print it.
6.14

###

# Target Desc: Human plasma kallikrein (Homo sapiens (Human), UniProt P03952)
# Sequence (P03952 391-638): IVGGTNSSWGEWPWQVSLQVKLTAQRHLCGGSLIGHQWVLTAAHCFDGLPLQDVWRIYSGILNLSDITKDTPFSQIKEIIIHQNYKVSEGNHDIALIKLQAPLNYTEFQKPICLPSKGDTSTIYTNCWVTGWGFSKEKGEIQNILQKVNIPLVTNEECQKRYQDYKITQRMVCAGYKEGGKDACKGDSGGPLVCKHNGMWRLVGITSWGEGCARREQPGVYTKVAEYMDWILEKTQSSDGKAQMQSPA
# Sequence (P03952 20-390 partner): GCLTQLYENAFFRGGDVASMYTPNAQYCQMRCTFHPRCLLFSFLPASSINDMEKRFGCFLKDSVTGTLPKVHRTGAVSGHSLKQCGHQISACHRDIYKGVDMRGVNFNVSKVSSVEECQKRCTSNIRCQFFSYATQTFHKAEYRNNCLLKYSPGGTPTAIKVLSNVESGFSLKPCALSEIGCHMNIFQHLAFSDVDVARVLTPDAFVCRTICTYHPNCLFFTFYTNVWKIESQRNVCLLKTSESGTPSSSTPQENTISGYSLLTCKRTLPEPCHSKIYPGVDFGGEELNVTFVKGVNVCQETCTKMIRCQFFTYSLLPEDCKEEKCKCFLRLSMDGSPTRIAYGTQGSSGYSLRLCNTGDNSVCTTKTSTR
# Method Description: Kallikrein Assay
# Study Conditions: purified Human plasma kallikrein 0.5 nM, Acetyl-K-P-R-AFC, pH 7.4; Ki from IC50 by Cheng Prusoff
# Description: The effectiveness of a compound of the present invention as an inhibitor of Kallikrein can be determined using a relevant purified serine protease, and an appropriate synthetic substrate. The rate of hydrolysis of the chromogenic or fluorogenic substrate by the relevant serine protease was measured both in the absence and presence of compounds of the present invention. […] A decrease in the rate of fluorescence change in the presence of inhibitor is indicative of enzyme inhibition. […]
Measurement Name: Ki (nM)
Numbers only here, please. The scale is nM.

// worked examples, Ki included
{"columns": ["Compound", "Ki, nM"],
 "data": [
  ["O=C1Nc2ccc(Cl)cc2[C@@]2(CCCN(C(=O)[C@H](Cc3ccccc3)NC(=O)c3ccc(C(=O)O)s3)C2)O1 [Example 203]", 2.1],
  ["COC(=O)Nc1n[nH]c2cc(C(=O)N[C@@H](Cc3ccccc3)C(=O)N3CC[C@@]4(C3)OC(=O)Nc3ccc(Cl)cc34)ccc12 [Example 227]", 5],
  ["CC(C)OC(=O)Nc1ccc(C(=O)N[C@@H](Cc2ccccc2)C(=O)N2CCC[C@@]3(C2)OC(=O)Nc2ccc(Cl)c(F)c23)cc1 [Example 231]", 4.74],
  ["CNC(=O)Nc1ccc(C(=O)N[C@@H](Cc2ccccc2)C(=O)N2CCC3(C2)OC(=O)Nc2ccc(Cl)cc23)cc1 (stereo partly shown) [Example 189]", 51.3]
]}

Retrieve Ki measured for O=C(Nc1ccc(C(=O)N[C@@H](Cc2ccc(F)cc2)C(=O)N2CCC[C@@]3(C2)OC(=O)Nc2ccc(Cl)c(F)c23)cc1)OCCc1nnn[nH]1 [Example 274] and print it.
0.65

Retrieve Ki measured for COC(=O)Nc1ccc(C(=O)N[C@@H](Cc2ccc(-c3cc[nH]n3)cc2)C(=O)N2CC[C@@]3(C2)OC(=O)Nc2ccc(Cl)cc23)cc1 [Example 77] and print it.
32.6

Retrieve Ki measured for O=C1Nc2ccc(Cl)c(F)c2[C@@]2(CCCN(C(=O)[C@H](Cc3ccccc3)NC(=O)c3ccc(B(O)O)s3)C2)O1 [Example 233] and print it.
2.44

###

# Target Desc: Human plasma kallikrein (Homo sapiens (Human), UniProt P03952)
# Method Description: Kallikrein Assay
# Type: biochemical
# Study Conditions: purified Human plasma kallikrein 0.5 nM, Acetyl-K-P-R-AFC, pH 7.4; Ki from IC50 by Cheng Prusoff
pKi: −log10 of the molar value.
Please enter Yes where pKi is greater than or equal to 8, and No where it is lower.

Answered cases to consult:
{"columns": ["Compound", "Category"],
 "data": [
  ["COC(=O)Nc1ccc(C(=O)N[C@@H](Cc2ccc(C(N)=O)cc2)C(=O)N2CCC[C@@]3(C2)OC(=O)Nc2ccc(Cl)cc23)cc1", "Yes"],
  ["COC(=O)Nc1ccc(C(=O)N[C@@H](CC(F)F)C(=O)N2CCC[C@@]3(C2)OC(=O)Nc2ccc(Cl)c(F)c23)cc1", "Yes"],
  ["COC(=O)Nc1ccc(C(=O)N[C@@H](CC(C)C)C(=O)N2CCC[C@@]3(C2)OC(=O)Nc2ccc(Cl)cc23)cc1", "Yes"],
  ["COC(=O)Nc1ccc(C(=O)N[C@@H](Cc2cncn2C)C(=O)N2CCC[C@@]3(C2)OC(=O)Nc2ccc(Cl)cc23)cc1", "Yes"],
  ["COC(=O)Nc1cccc(C(=O)N[C@@H](Cc2ccccc2)C(=O)N2CCC3(C2)OC(=O)Nc2ccc(Cl)cc23)c1 (stereo partly shown)", "Yes"],
  ["O=C1Nc2ccc(Cl)cc2[C@@]2(CCN(C(=O)[C@H](Cc3ccccc3)NC(=O)c3ccc4[nH]c(=O)[nH]c(=O)c4c3)C2)O1", "No"],
  ["O=C1Nc2ccc(Cl)cc2[C@@]2(CCCN(C(=O)[C@H](Cc3ccccc3)NC(=O)c3ccc4[nH]c(=O)cc(O)c4c3)C2)O1", "Yes"],
  ["Nc1n[nH]c2cc(C(=O)N[C@@H](CC(=O)N3CCC3)C(=O)N3CCC[C@@]4(C3)OC(=O)Nc3ccc(Cl)cc34)ccc12", "Yes"]
]}

Can Nc1nc2ccc(C(=O)N[C@@H](Cc3ccccc3)C(=O)N3CCC4(C3)OC(=O)Nc3ccc(Cl)cc34)cc2s1 (stereo partly shown) be said to have pKi at or above 8?
No

Can COC(=O)NCc1ccc(C(=O)N[C@@H](Cc2ccccc2)C(=O)N2CCC[C@@]3(C2)OC(=O)Nc2ccc(Cl)c(F)c23)cc1 be said to have pKi at or above 8?
Yes

Can Nc1n[nH]c2cc(C(=O)N[C@@H](Cc3ccccc3)C(=O)N3CCC[C@@]4(C3)OC(=O)Nc3ccc(Cl)cc34)ccc12 be said to have pKi at or above 8?
Yes

Can COC(=O)Nc1ccc(C(=O)N[C@@H](Cc2cc(C3CC3)no2)C(=O)N2CC[C@@]3(C2)OC(=O)Nc2ccc(Cl)cc23)cc1 be said to have pKi at or above 8?
No

Can COC(=O)Nc1ccc(C(=O)N[C@@H](Cc2ccc(O)cc2)C(=O)N2CCC3(C2)OC(=O)Nc2ccc(Cl)cc23)cc1 (stereo partly shown) be said to have pKi at or above 8?
No

Can Cc1[nH]c2ccc(C(=O)N[C@@H](Cc3ccccc3)C(=O)N3CCC[C@@]4(C3)OC(=O)Nc3ccc(Cl)cc34)cc2c1C(=O)O be said to have pKi at or above 8?
Yes

Can COC(=O)Nc1ccc(C(=O)N[C@@H](CC2CC2(F)F)C(=O)N2CCC[C@@]3(C2)OC(=O)Nc2ccc(Cl)c(F)c23)cc1 (single isomer, unassigned) [Example 67A] be said to have pKi at or above 8?
Yes

Can CNc1cc(C(=O)N[C@@H](Cc2ccccc2)C(=O)N2CCC[C@@]3(C2)OC(=O)Nc2ccc(Cl)cc23)ccn1 be said to have pKi at or above 8?
Yes

Can COC(=O)Nc1ccc(C(=O)N[C@@H](CCF)C(=O)N2CCC[C@@]3(C2)OC(=O)Nc2ccc(Cl)c(F)c23)cc1 be said to have pKi at or above 8?
Yes

Can O=C(Nc1ccc(C(=O)N[C@@H](Cc2ccccc2)C(=O)N2CCC3(C2)OC(=O)Nc2ccc(Cl)cc23)cc1)OCCN1CCOCC1 (stereo partly shown) be said to have pKi at or above 8?
No

Reference source for all entries: patent US10093683B2
